# target desc: ΔF508-CFTR (Homo sapiens, UniProt P13569, DEL508-508)
# Construct: host or cells: CFBE41o-, doxycycline-inducible
# Sequence (P13569 with tags, fused parts or gaps DEL508-508): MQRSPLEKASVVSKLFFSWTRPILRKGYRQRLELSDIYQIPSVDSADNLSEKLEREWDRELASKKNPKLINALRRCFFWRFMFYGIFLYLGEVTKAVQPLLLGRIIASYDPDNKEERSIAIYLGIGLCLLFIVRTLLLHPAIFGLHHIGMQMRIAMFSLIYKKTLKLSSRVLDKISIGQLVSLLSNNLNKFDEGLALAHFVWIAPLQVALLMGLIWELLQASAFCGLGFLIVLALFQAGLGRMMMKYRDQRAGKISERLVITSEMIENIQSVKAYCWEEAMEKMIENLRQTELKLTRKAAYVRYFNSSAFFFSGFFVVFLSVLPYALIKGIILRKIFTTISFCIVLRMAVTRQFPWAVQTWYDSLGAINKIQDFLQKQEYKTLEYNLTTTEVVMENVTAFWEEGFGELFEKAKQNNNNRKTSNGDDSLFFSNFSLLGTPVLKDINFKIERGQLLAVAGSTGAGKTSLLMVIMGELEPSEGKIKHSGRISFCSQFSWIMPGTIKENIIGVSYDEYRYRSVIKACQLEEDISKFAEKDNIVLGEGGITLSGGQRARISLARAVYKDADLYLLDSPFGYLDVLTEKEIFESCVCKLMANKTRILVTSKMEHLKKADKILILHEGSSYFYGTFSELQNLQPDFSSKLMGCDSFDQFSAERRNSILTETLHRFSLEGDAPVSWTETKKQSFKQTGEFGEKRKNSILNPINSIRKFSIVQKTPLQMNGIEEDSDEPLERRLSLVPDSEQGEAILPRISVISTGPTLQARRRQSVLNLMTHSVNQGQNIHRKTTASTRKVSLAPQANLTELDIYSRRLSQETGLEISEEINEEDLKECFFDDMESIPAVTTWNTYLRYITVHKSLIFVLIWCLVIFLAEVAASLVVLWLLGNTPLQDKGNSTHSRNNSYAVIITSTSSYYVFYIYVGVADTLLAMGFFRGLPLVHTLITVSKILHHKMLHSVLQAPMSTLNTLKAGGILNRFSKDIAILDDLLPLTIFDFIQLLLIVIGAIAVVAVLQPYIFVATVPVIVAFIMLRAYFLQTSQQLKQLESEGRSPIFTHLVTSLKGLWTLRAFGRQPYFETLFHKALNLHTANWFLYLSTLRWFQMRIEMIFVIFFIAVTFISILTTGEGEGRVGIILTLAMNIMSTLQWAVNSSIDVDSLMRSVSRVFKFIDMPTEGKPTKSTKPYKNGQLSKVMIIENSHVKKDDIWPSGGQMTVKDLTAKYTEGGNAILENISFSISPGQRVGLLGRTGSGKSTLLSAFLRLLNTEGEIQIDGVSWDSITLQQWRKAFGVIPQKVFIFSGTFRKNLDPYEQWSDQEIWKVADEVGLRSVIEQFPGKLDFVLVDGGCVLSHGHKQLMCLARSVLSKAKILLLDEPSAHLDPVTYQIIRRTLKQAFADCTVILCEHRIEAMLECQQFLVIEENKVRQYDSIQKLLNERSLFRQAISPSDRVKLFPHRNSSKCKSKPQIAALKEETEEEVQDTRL
# test description: CFTR cell surface levels using HRP-tagged ΔF508-CFTR expressing CFBE cells, intrinsic corrector capacity
# Format: cell-based
# cond: HRP-tagged ΔF508-CFTR CFBE41o- cells, compounds alone (intrinsic corrector capacity), 20 hours at 33° C.; read-out: EC50
Rule: measured EC50 below 0.8 µM gets True; anything equal to or greater than 0.8 µM gets False.

The examples below pair each entry with its known result.
CC(C)c1nn(-c2cccc(N(C)C)c2)c2nc(C(=O)O)cc(-c3ccc(N4CCC(C#N)CC4)cc3)c12 : True
CN(c1ccc(-c2cc(C(=O)O)nc3c2c(C2CCC2)nn3-c2ccccc2)cn1)C1CCOCC1 : True
CC(C)c1nn(C2CCC(F)(F)CC2)c2nc(C(=O)O)cc(-c3ccc(N4CCOCC4)cc3)c12 : True
Cc1nn(-c2ccccc2)c2nc(C(=O)O)cc(-c3ccc(N4CCC(O)C4)cc3)c12 (stereo not shown) : False
CC(C)c1nn(-c2cccc(N3CCOCC3)c2)c2nc(C(=O)O)cc(-c3cnc(N(C)C)nc3)c12 : True

For CC(C)c1nn(-c2ccnc(N3CCCC3)c2)c2nc(C(=O)O)cc(-c3ccc(N4CCC(C#N)CC4)nc3)c12 , is the recorded EC50 below the cut-off of 0.8 µM?
False

Can you check CC(C)(C)c1nn(C2CCCC2)c2nc(C(=O)O)cc(-c3cnc(N4CCOCC4)nc3)c12 next?
False

====

# target desc: ΔF508-CFTR (Homo sapiens, UniProt P13569, DEL508-508)
# Construct: host or cells: CFBE41o-, doxycycline-inducible
# test description: CFTR cell surface levels using HRP-tagged ΔF508-CFTR expressing CFBE cells, in the presence of a co-corrector
# Format: cell-based
# cond: HRP-tagged ΔF508-CFTR expressing CFBE cells, in the presence of 3 μM co-corrector
Outcome label depends on % Activation relative to 300%: at/above gives MET, below gives NOT MET.

The examples below pair each entry with its known result.
CC(C)c1nn(-c2ccc(F)cc2)c2nc(C(=O)O)cc(N3CC[C@@H](O)[C@H](F)C3)c12 : MET
CC1(c2nn(-c3ccccc3)c3nc(C(=O)O)cc(-c4ccc(N5CCOCC5)cc4)c23)COC1 : NOT MET
CN(C)[C@H]1C[C@@H](Oc2cc(C(=O)O)nc3c2c(C2CCC2)nn3-c2ccccc2)C1 : NOT MET

Could you verify whether the entry N#CC1CCN(c2ccc(-c3cc(C(=O)O)nc4c3c(C3CCC3)nn4-c3ccnc(N4CCCC4)c3)cn2)CC1 shows % Activation of no less than 300%?
MET

Can you check COC1CCN(C2CCN(c3cc(C(=O)O)nc4c3c(OC(C)C)nn4-c3ccc(F)cc3)CC2)CC1 next?
MET

Can you check CC(C)c1nn(-c2ccc(F)cc2)c2nc(C(=O)O)cc(N3CCN(CCOCCO)CC3)c12 next?
NOT MET

====

# target desc: ΔF508-CFTR (Homo sapiens, UniProt P13569, DEL508-508)
# Construct: host or cells: CFBE41o-, doxycycline-inducible
# test description: CFTR cell surface levels using HRP-tagged ΔF508-CFTR expressing CFBE cells, intrinsic corrector capacity
# Type: cell-based
# cond: HRP-tagged ΔF508-CFTR expressing CFBE cells; intrinsic corrector capacity (no co-corrector); 33° C., 20 hours; read-out: EC50
Rule: measured EC50 below 900 nM gets true (1); anything equal to or greater than 900 nM gets false (0).

For CCOCC(=O)N1CCN(c2cc(C(=O)O)nc3c2c(C(C)C)nn3-c2ccc(F)cc2)CC1 , is the recorded EC50 below the cut-off of 900 nM?
false (0)

Can you check CC(C)c1nn(-c2ccc(F)cc2)c2nc(C(=O)O)cc(N3CC(N4CCCC4)C3)c12 next?
false (0)

Can you check O=C(O)c1cc(OCCN2CCCCC2)c2c(C3CCC3)nn(-c3ccccc3)c2n1 next?
false (0)

Can you check CN1CCCN(CCOc2cc(C(=O)O)nc3c2c(C2CCC2)nn3-c2ccccc2)CC1 next?
false (0)

Data provenance is patent US9796711B2.
